test: Mouse brain penetration (brain:blood ratio); settings: in vivo, dosed intravenously at 0.5 or 1 mg/kg, levels measured after 5 min, female NMRI mice, read-out: B:B (brain to blood ratio)
metric: Kp at 5 min
Give bare numbers.

Look over these answered cases.
The compound identified as CNC(=O)[C@H]1Cc2ccccc2N1C(=O)Cc1ccc(F)cc1 [Compound 47] registered its Kp at 5 min at 0.9

The compound identified as CNC(=O)C1Cc2ccccc2N1C(=O)COc1ccc(F)cc1 (stereo not drawn) [Compound 35] registered its Kp at 5 min at 1.5

Moving on to another compound below.
The compound identified as CNC(=O)C1Cc2cc(F)ccc2N1C(=O)COc1ccc(F)cc1 (stereo not drawn) [Compound 55] registered its Kp at 5 min at 1.4
